mass density listing for selected compounds.
- Test Context: 283.15 K; 5000 kPa; Liquid; Vibrating tube method
Measured Attribute: mass density (kg/m3)

1. CCCCOC: 760.82
2. CC(C)CCOCCC(C)C: 786.88
3. CC(C)OC(C)C: 739.6
4. CCCCOCC: 764.45
5. CCOC(C)(C)C: 756.42
6. COC(C)(C)C: 756.29
7. CCCCCOCCCCC: 794.85
8. CCCOCCC: 762.38

###

- Test Context: 313.15 K; 25000 kPa; Liquid; Vibrating tube method
Measured Attribute: mass density (kg/m3)

1. CCCCOC: 752.04
2. CCCCOCC: 756.09
3. CC(C)OC(C)C: 732.97
4. CC(C)CCOCCC(C)C: 779.9
5. COC(C)(C)C: 748.27
6. CCCOCCC: 754.2
7. CCCCCOCCCCC: 787.03
8. CCOC(C)(C)C: 748.69
